assaySystem: human A3AR (Homo sapiens (Human))
protocolNotes: [35S]GTPγS binding assay, membranes of CHO cells expressing human A3AR
studyConditions: read-out: IC50, inhibition of [35S]GTPγS binding stimulated by NECA; stimulation by 1 μM NECA
reportedEndpoint: IC50 (µM)
// note: answer is a bare numeric in µM

Retrieve IC50 measured for O[C@@H]1[C@H](O)[C@@H]2C[C@@H]2[C@H]1n1cnc2c(NCc3cccc(I)c3)nc(Cl)nc21 [Compound 7b] and print it. 0.0298

---

assaySystem: hA1AR (Homo sapiens (Human), UniProt P30542)
Sequence (P30542 whole entry): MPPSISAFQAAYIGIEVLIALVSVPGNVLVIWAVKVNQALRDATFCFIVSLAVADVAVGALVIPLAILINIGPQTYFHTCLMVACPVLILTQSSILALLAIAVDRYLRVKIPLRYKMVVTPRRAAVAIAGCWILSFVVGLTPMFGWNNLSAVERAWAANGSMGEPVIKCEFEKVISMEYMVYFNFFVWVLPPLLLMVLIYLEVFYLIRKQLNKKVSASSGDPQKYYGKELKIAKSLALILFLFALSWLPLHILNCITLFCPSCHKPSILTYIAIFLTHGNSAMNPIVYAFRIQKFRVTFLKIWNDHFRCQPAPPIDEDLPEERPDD
protocolNotes: A1AR functional assay, inhibition of forskolin-stimulated cyclic AMP production in AR-transfected CHO cells
Type: cell-based
studyConditions: maximal efficacy at 10 μM, in comparison to effect (100%) of full agonist CPA at 10 μM; n = 3-5
reportedEndpoint: % Inhibition, cyclic AMP A1 (%)
Supply the numeric figure in %, leaving out any unit text.

These solved cases illustrate the format of a correct answer.
O[C@@H]1[C@H](O)[C@@H]2C[C@@H]2[C@H]1n1cnc2c(N[C@@H](C3CCC3)C3CC3)nc(Cl)nc21 [Compound 216] ... 33.4
OC[C@H]1O[C@@H](n2cnc3c(NC4CCCC4)ncnc32)[C@H](O)[C@@H]1O [Compound 235a, N^6-cyclopentyladenosine, reference compound] ... 100
O[C@@H]1[C@H](O)[C@@H]2C[C@@H]2[C@H]1n1cnc2c(N[C@H](C3CCC3)C3CC3)nc(Cl)nc21 [Compound 217] ... 18.1
O[C@@H]1[C@H](O)[C@@H]2C[C@@H]2[C@H]1n1cnc2c(N[C@H](c3ccccc3)C3CC3)nc(Cl)nc21 [Compound 221] ... −2.4

Kindly consider the entry below.
Entry O[C@@H]1[C@H](O)[C@@H]2C[C@@H]2[C@H]1n1cnc2c(N[C@@H](c3ccccc3)C3CC3)nc(Cl)nc21 [Compound 220] needs its % Inhibition, cyclic AMP A1 filled in; supply it. −7.4

---

assaySystem: hA3AR (Homo sapiens (Human))
Sequence (P0DMS8 whole entry): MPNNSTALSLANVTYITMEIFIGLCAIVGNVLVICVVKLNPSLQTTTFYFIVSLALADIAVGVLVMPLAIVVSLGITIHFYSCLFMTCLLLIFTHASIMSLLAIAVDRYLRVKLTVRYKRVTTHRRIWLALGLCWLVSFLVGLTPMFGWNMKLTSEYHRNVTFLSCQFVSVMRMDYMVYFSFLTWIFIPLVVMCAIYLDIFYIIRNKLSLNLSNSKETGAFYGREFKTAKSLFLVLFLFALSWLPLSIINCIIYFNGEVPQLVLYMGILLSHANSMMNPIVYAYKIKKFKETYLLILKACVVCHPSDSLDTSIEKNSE
protocolNotes: Radioligand membrane binding at hA3AR (Example 6)
studyConditions: CHO cells expressing hA3AR; [125I]I-AB-MECA; n = 3-5; read-out: Affinity Ki, nM A3
# Ki per entry
Please reply with the bare figure in nM and do not write the unit itself.

Answered cases to consult:
O[C@@H]1[C@H](O)[C@@H]2C[C@@H]2[C@H]1n1cnc2c(NC3CCCCC3)nc(Cl)nc21 ... 500
CC(C)[C@H](Nc1nc(Cl)nc2c1ncn2[C@H]1[C@H](O)[C@H](O)[C@@H]2C[C@@H]21)C1CC1 ... 1720
Nc1nc(Cl)nc2c1ncn2[C@H]1[C@H](O)[C@H](O)[C@@H]2C[C@@H]21 ... 160

Next up:
Enter recorded Ki with hA3AR (Homo sapiens (Human)) for "COc1cc(F)c(F)cc1CNc1nc(Cl)nc2c1ncn2[C@H]1[C@H](O)[C@H](O)[C@@H]2C[C@@H]21" here. 83.2

---

assaySystem: hA2AAR (Homo sapiens (Human), UniProt P29274)
Sequence (P29274 whole entry): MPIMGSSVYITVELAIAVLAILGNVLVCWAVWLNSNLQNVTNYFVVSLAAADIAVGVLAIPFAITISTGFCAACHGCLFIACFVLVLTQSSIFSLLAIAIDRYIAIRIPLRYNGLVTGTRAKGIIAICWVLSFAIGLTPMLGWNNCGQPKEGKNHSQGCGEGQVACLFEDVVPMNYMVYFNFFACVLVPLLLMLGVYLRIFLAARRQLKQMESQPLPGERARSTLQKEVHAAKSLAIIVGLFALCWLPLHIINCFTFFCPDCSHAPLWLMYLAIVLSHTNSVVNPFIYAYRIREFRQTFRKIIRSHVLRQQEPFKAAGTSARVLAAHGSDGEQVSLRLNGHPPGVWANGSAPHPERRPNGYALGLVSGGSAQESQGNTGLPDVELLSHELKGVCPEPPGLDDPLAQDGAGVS
protocolNotes: Radioligand membrane binding at hA2AAR (Example 6)
studyConditions: read-out: (% inhibition) A2A
Entries and their measured inhibition at 10 µM follow.
State the answer as a number, implicitly in %.

In the examples that follow, each entry is paired with its recorded inhibition at 10 µM.
O[C@@H]1[C@H](O)[C@@H]2C[C@@H]2[C@H]1n1cnc2c(NCc3cc(F)ccc3F)nc(Cl)nc21 ... 46
COc1cc(F)c(F)cc1CNc1nc(Cl)nc2c1ncn2[C@H]1[C@H](O)[C@H](O)[C@@H]2C[C@@H]21 ... 30
O[C@@H]1[C@H](O)[C@@H]2C[C@@H]2[C@H]1n1cnc2c(NCc3cccc(OCCF)c3)nc(Cl)nc21 ... 32

# next compound below
Give the reported inhibition at 10 µM for this compound. "COc1ccc(F)c(F)c1CNc1nc(Cl)nc2c1ncn2[C@H]1[C@H](O)[C@H](O)[C@@H]2C[C@@H]21" 38
